Experiment: Bioavailability in children and young patient with malignancy
Type: ADME, organism-based
Conditions: human, in vivo
measurementType: bioavailability (%)

INSERT INTO results (structurestring, measurementtype, unitabbrev, endpointresult) VALUES
  ('Nc1nc2c(ncn2COCCO)c(=O)[nH]1', 'bioavailability', '%', 60);
